experiment: molar heat capacity at constant pressure; details: 287.15 K; 101.33 kPa; Crystal; Small sample (50 mg) DSC
Measured molar heat capacity at constant pressure accompanies every entry in the list below.
Outcome Measure: molar heat capacity at constant pressure (J/K/mol)

[[record]]
molecule = "OC[C@H](O)C(O)[C@@H](O)CO [L-(-)-arabitol]"
outcome_measure = "molar heat capacity at constant pressure"
value = 199.37

[[record]]
molecule = "OC[C@@H](O)[C@@H](O)CO [meso-1,2,3,4-butanetetrol]"
outcome_measure = "molar heat capacity at constant pressure"
value = 158.1

[[record]]
molecule = "O[C@H]1[C@H](O)[C@@H](O)[C@H](O)[C@@H](O)[C@H]1O [cis-1,2,3,5-trans-4,6-cyclohexanehexol]"
outcome_measure = "molar heat capacity at constant pressure"
value = 208.96

[[record]]
molecule = "OC[C@@H](O)C(O)[C@H](O)CO [D-arabitol]"
outcome_measure = "molar heat capacity at constant pressure"
value = 192.88

